Reference for the values: patent US20150266977A1

Target: T1, recombinant mouse sclerostin (mouse, UniProt Q99P68 24-211)
T1 construct: also called ms sclerostin; murine sclerostin
T1 sequence (looked up): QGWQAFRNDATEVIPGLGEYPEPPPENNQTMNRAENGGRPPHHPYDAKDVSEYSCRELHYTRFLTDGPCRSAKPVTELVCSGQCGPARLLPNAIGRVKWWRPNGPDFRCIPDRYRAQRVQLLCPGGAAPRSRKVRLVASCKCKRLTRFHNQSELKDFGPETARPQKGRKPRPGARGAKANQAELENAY
Test: SPR
Measured kon values are reported for all entries that follow.
Your answer should be a plain number; it is taken to be in M⁻¹ s⁻¹.

Recorded kon, per entry:
{"Binder": "AE10-6-AM6 (antibody, V domains shown, converted into IgG; also called rHC + LC S4 clone 119) VH: EVQLVQSGAEVKKPGASVKVSCKVSGYTLSELSMHWVRQAPGKGLEWMGGFDPEGGETIYAQKFQGRVTMTEDTSTDTAYMELSSLRSEDTAVYYCATDTEGYWEKFFQHWGQGTLVTVSS VL: QAVVTQEPSLTVSPGGTVTLTCGSSTGAVTIDHYPYWFQQKPGQAPRTLISDTDDKHSWTPARFSGSLLGGKAALTLSGAQPEDEAEYYCLLDYGGTFVFGGGTKLTVL", "Unit of measure": "M⁻¹ s⁻¹", "kon": "3.2e+07"}
{"Binder": "AE10-6-AM3 (antibody, V domains shown, converted into IgG) VH: EVQLVQSGAEVKKPGASVKVSCKVSGYTLTELSMHWVRQAPGKGLEWMGGFDPEDGETIYAQKFQGRVTMTEDTSTDTAYMELSSLRSEDTAVYYCATDSAGYWYKFFQHWGQGTLVTVSS VL: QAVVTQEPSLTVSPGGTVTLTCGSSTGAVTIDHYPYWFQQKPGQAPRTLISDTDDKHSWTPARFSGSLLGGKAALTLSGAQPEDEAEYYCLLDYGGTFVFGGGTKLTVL", "Unit of measure": "M⁻¹ s⁻¹", "kon": "1e+07"}

# next binder below
Query AE10-6-AM8 (antibody, V domains shown, converted into IgG) VH: EVQLVQSGAEVKKPGASVKVSCKVSGYTLSELSIHWVRQAPGKGLEWMGGFDPEDGETIYAQKFQGRVTMTEDTSTDTAYMELSSLRSEDTAVYYCATDSAGYWYKFFQHWGQGTLVTVSS VL: QAVVTQEPSLTVSPGGTVTLTCGSSTGAVTIDHYPYWFQQKPGQAPRTLISDTDDKHSWTPARFSGSLLGGKAALTLSGAQPEDEAEYYCLLDYGGSFVFGGGTKLTVL yields kon of 1.1e+07
